System: NCI-H1299
Test: Antiproliferative activity against human NCI-H1299 cells expressing NfsA of Escherichia coli assessed as cell growth inhibition measured after 4 hrs
Assay type: functional
Conditions: NCI-H1299, 4 h
Below: a set of entries, each annotated with reported IC50.
reported-property: IC50 (nM)

| chem-smiles | unit-name | result-number |
| --- | --- | --- |
| CS(=O)(=O)OCCN(CCBr)c1c(C(=O)NCCO)cc([N+](=O)[O-])cc1[N+](=O)[O-] | nM | 48 |
| CN1CCN(C(=O)c2cc(N(CCBr)CCBr)c(S(C)(=O)=O)cc2[N+](=O)[O-])CC1 | nM | 154 |
| CC(C)N1CCN(C(=O)c2cc(N(CCBr)CCBr)c(S(C)(=O)=O)cc2[N+](=O)[O-])CC1 | nM | 287 |

---

System: SiHa
Assay: Antiproliferative activity against human SiHa cells assessed as inhibition of cell growth incubated for 4 hrs under anoxic condition and measured after 5 days regrowth under aerobic condition
Assay type: functional, cell-based
pIC50: −log10 of the molar value.
Label 1.0 when pIC50 >= 5; otherwise 0.0.

| compound | test-target | class-label |
| --- | --- | --- |
| CCN1CCN(C(=O)c2cc(N(CCBr)CCOS(C)(=O)=O)c(S(C)(=O)=O)cc2[N+](=O)[O-])CC1 [CP-506] | SiHa | 0.0 |
| CN1CCN(C(=O)c2cc(N(CCBr)CCOS(C)(=O)=O)c(S(C)(=O)=O)cc2[N+](=O)[O-])CC1 | SiHa | 0.0 |
| CCN1CCN(C(=O)c2cc(N(CCBr)CCBr)c(S(=O)(=O)CC)cc2[N+](=O)[O-])CC1 | SiHa | 0.0 |
| CCN1CCN(C(=O)c2cc(N(CCBr)CCOS(C)(=O)=O)c(S(=O)(=O)CC)cc2[N+](=O)[O-])CC1 | SiHa | 0.0 |
| CS(=O)(=O)OCCN(CCBr)c1c(C(=O)NCCO)cc([N+](=O)[O-])cc1[N+](=O)[O-] | SiHa | 1.0 |
| CN1CCN(C(=O)c2cc(N(CCBr)CCBr)c(S(C)(=O)=O)cc2[N+](=O)[O-])CC1 | SiHa | 0.0 |

---

Below: a set of entries, each annotated with reported IC50.
System: HCT-116
Assay: Antiproliferative activity against human HCT-116 cells assessed as inhibition of cell growth incubated for 4 hrs under anoxic condition and measured after 5 days regrowth under aerobic condition
Format: functional, cell-based
reported-property: IC50 (µM)

| compound | unit-name | result-number |
| --- | --- | --- |
| CCN1CCN(C(=O)c2cc(N(CCBr)CCBr)c(S(=O)(=O)CC)cc2[N+](=O)[O-])CC1 | µM | 27 |
| CCN1CCN(C(=O)c2cc(N(CCBr)CCBr)c(S(C)(=O)=O)cc2[N+](=O)[O-])CC1 | µM | 21 |
| CN1CCN(C(=O)c2cc(N(CCBr)CCBr)c(S(C)(=O)=O)cc2[N+](=O)[O-])CC1 | µM | 24 |
| CCN1CCN(C(=O)c2cc(N(CCBr)CCOS(C)(=O)=O)c(S(=O)(=O)CC)cc2[N+](=O)[O-])CC1 | µM | 18 |
| CCN1CCN(C(=O)c2cc(N(CCBr)CCOS(C)(=O)=O)c(S(C)(=O)=O)cc2[N+](=O)[O-])CC1 [CP-506] | µM | 14 |
| CN1CCN(C(=O)c2cc(N(CCBr)CCOS(C)(=O)=O)c(S(C)(=O)=O)cc2[N+](=O)[O-])CC1 | µM | 23 |
| CS(=O)(=O)OCCN(CCBr)c1c(C(=O)NCCO)cc([N+](=O)[O-])cc1[N+](=O)[O-] | µM | 2.5 |

---

Below: a set of entries, each annotated with reported half-life.
Test: Metabolic stability in mouse liver microsome assessed as half life in presence of NADPH by LC-MS/MS analysis
Type: ADME
Details: liver microsomes

| chem-smiles | unit-name | half-life |
| --- | --- | --- |
| CCN1CCN(C(=O)c2cc(N(CCBr)CCOS(C)(=O)=O)c(S(C)(=O)=O)cc2[N+](=O)[O-])CC1 | min | 41.2 |
| CCN1CCN(C(=O)c2cc(N(CCBr)CCBr)c(S(C)(=O)=O)cc2[N+](=O)[O-])CC1 | min | 6.05 |

---

Test system: NCI-H1299
Experiment: Antiproliferative activity against human NCI-H1299 cells expressing NfsA of Escherichia coli assessed as cell growth inhibition measured after 4 hrs
Format: functional
Conditions: NCI-H1299, 4 h
pIC50: −log10 of the molar value.
Below: a set of entries, each annotated with reported pIC50.

| chem-smiles | pIC50 |
| --- | --- |
| CCS(=O)(=O)c1cc([N+](=O)[O-])c(C(=O)N2CCN(C)CC2)cc1N(CCBr)CCBr | 6.26 |
| CCN1CCN(C(=O)c2cc(N(CCBr)CCBr)c(S(=O)(=O)CC)cc2[N+](=O)[O-])CC1 | 6.26 |
| CCS(=O)(=O)c1cc([N+](=O)[O-])c(C(=O)N2CCN(C(C)C)CC2)cc1N(CCBr)CCBr | 6.16 |
| CCN1CCN(C(=O)c2cc(N(CCBr)CCBr)c(S(C)(=O)=O)cc2[N+](=O)[O-])CC1 | 6.76 |

Entry source: ChEMBL document CHEMBL5370680
